Sourced from paper PMC2756588

Known SPOT intensity of a selection of binders
Study Target: T1, Sla1-3, P32790
T1 sequence (P32790 344-424, looked up): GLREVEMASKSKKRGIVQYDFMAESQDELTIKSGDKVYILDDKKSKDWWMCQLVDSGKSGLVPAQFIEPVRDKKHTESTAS
Experiment Description: SPOT array
Particulars: median of control spots 5475
Hey, just send me the number, nothing else.

Incoming: Entry PKRRAPPPVPKKPSS : reported SPOT intensity = ?
Outgoing: 3500

Incoming: Same question for EQEEIAPSLPSRNSI please.
Outgoing: 0

Incoming: Same question for FLIKFTPKFPQSIDH please.
Outgoing: 13

Incoming: Same question for QHQQRQPKRPKRYSL please.
Outgoing: 78

Incoming: Same question for NNQRRKPLLLNIGDH please.
Outgoing: 138

Incoming: Same question for MFLISPPASPPPEFD please.
Outgoing: 0

Incoming: Same question for AAAPKHAPPPVPNET please.
Outgoing: 0
